- ASSAY TEXT: yeast display, Sf9 membrane polyspecificity reagent, FACS + sequencing; frameworks hold sequencing errors
READOUT: polyreactivity (PSR sort gate)

These solved cases illustrate the format of a correct answer.
QVQLVESGGGLVQAGGSLRLSCAASGRTSYLYALGWYRQAPGKERELVAAISRGVGSTYYADSVKGRFTISRDNAKNTVYLQMHSLKPEDTAVYYCAAYRYTPWMYYWGQGTQVTVSS : high polyreactivity
QVQLVESGGGLFQAGGSLRLSCAASGSIFAWYAMGWYRQAPGKERELVAVITSGGSTNYADSVKGRFTISRDNEKNTVYLQMNSLKPEDTAVYYCAAGSYYSWYPFDYWGQGTQVTVSS : low polyreactivity
QVQLVESGGGLVQAGGSLRLSCAASGFIFDYYAMGWYRQAPGKERELVAAITSRSGSTYYADSVKGRFTISRDNAKNTVYLQMNSLKPEDTAVYYCARRFKYGSTAWRFYYWGQGTQVTVSS : high polyreactivity
QVQLQESGGGLVQAGGSMRLSCAASGYFSNYYSLGLYRQAPGKERELVAGIGTGTSTYYADSVKGRFTISRDNAKNTVYQQMNSLKPEDTAVYYCAAPLDTSSRIFDYWGQGTQVTVSS : low polyreactivity

# get_value(readout='polyreactivity (PSR sort gate)', item= QVQIVESGGGLVQAGGSLRLSCAASGFIFQTNVMGWYRQAPGKERELVAAISSGDSTYYADSVKGRFTISRDNAKNTVYLQMNSLKPEDTAVYYCAADVLGTTTTVGGFNYWGQGTQVTVSS ) low polyreactivity

###

- ASSAY TEXT: yeast display, Sf9 membrane polyspecificity reagent, FACS + sequencing; frameworks hold sequencing errors
READOUT: polyreactivity (PSR sort gate)

Completed entries (count: 4):
QVQLVESGGGLVQAGGSLRLSCAASGFIFRYNAMGWNRQAPGKERELVARINSGVSTNYADSVKGRFTISRDNAKNTVYLQMNSLKPEDTAVYYCNARVRRGYSRFDYWGQGTQVTVSS : high polyreactivity
QVQLVESGGGLVQAGGSLRLSCAASGRIFTRNTMGWYRQAPGKERELVAAITSRGGSTYYADSVKGRFTISRDNAKITVYLQMNSLKPEETAVYYCAADIPRYYYYWGQGTQVTVSS : high polyreactivity
QVQLVESGGGLVQAGGSIRLSCAASVSTFFVYTMGWYRQATGKGMELVAAISGSGGSTAYADSVKGRFTISRDNAKNTVYLQLNSLKPEDTAVYYCAARRHVYLRGSTFEFNYWGQGTQVTVSS : high polyreactivity
QVHLVESGGGLVPAGGSLRLSCAASGGIFIFYAMGWYRQAPGKERELVAAISNVSSTNYADSVKGRFTISRDNAKNTVYLQMNSLKPEDTAVYYCNAVGVPSEYYSWGQGTQVTVSS : low polyreactivity

Which polyreactivity (PSR sort gate) value belongs to QVQLVESGGGLVQAGGSLRLSCAASGSILDNYGMGWYRQAPGKERELVASISGGAGSPNYADSVKGRFTISRDNAKNTVYLQMYSLKPEVTAVYDCNADQIFGPALNLWKLDYWGQGNQVTVSS ? low polyreactivity

###

- ASSAY TEXT: yeast display, Sf9 membrane polyspecificity reagent, FACS + sequencing; frameworks hold sequencing errors
READOUT: polyreactivity (PSR sort gate)

QVHLVESGGGLVQAGGSLRLSCAASGLIFGRNAMGWYRQAPGKERELVAAISTRGGSTYYADSVKGRFTISRDNAKNTVYLQMNSLKPEDTAVYYCAARGSYGYDYWGQGPQVTVSS : high polyreactivity
QVQLVESGGGLVQAGGSLRLSCAASGSIFTCNAMGWYRQAPGKERELVAAISYISGGTYYADSVKGRFTISRDNAKNTVYLQMNSLKPEDTAVYYCAAVVYYYTYHYWGQGTQGTVSS : low polyreactivity
QVQLVESGGGLVQAGGSLRLSCAASGRIFSYFAMGWYRQAPGKEWELVAASSGNGGSTYYADSVKGRFTISRDNAKNTVYLHMNSLKPEDTAVYYCAADWRSSDWAYLYPYSYDDWGQGTQVTVSS : low polyreactivity
QVQLEESGGGLVQAGGSLRLSCAASGSTFYTNAMGWYRQAPGKERELVAAISASVGSTYYADSVKGRFTISRDNAKNTVYLQMNSLKPEDTAVYYCAADVWASRRYDYWGQGTQVTVSS : low polyreactivity
QVQLVESGGGLVQAGGSLRLSCAASGYTFGIYAMGWYRQAPGKAREFVAAIRWSDTSTSYADSVKWRFTISRDNAKNTVYLQMNSLKPEDTAVYNCAADTFYLYDYWGQGTQVTVSS : low polyreactivity
QVQLVESGGGLVQAGGSLRLSCAASGSIFEGSVMGWSRQAPGKEREWVATISFSGGSTYYADSVKGRFTISRDNAKNTLYLQMNSLKPEDTAVYYCNALVYHTKGDYGYWGQGTQVTVSS : low polyreactivity
QVQVVESGGGLVQEGGSLRLSCSASGRIFGVNAMGWYRKAPGKERELFAAISRSGGSTYYADSVKGRFTISRDNEKNTVYLQMNSLNPEDTAVYYCAAGGRRYDDDYWGQGTQVTVSS : high polyreactivity
QVQLVESGGGLVQAGGSLRLSCAASGNTFGHYTMGWYRQAPGKERELVAAISWDDSSTNYADSVKGRFTISRDNAKNTVYLQMNILKPEDTAVYYCAKETELRTQYPYVYDYWGQGSQVTVSS : low polyreactivity

Recorded polyreactivity (PSR sort gate) of QVQLVESGGGLVQAVGSLRLSCAASGSIYGYAMGWYIQAPGKERELVAAISGRGGRTYYADSVKGRFTISRDNAKNTVYLQMNSLKPEDTAVYYCNFQWRYPYHYTVDYWGQGTQVTVSS , please. high polyreactivity

Need polyreactivity (PSR sort gate), item QVQLVESGGGLVQAGGSLRLSCAASGLTFKPYAMVWYRQAPGKEREFVAAISWRSGSTYYADSVKGRFTISRDYEKNTVYLQMNRLKPEDTAVYYCNALYRVFVGTYDFWGQGTHVTVSS high polyreactivity

Fill blank: measured polyreactivity (PSR sort gate) of the sequence QVQLVESGGGLVQAGGSLRLSCAASGIIFTRYAMGWYRQAPGKERELVAAITTSGGRTYYADSVKGRFTISRDNAKNTVYLQMNSLKPEDTAVYYCAVSGHARYDYWGQGTQVTVSS is ____. high polyreactivity

GET /values?readout=polyreactivity (PSR sort gate)&item= QVQLVESGGGLVQAGGSLRLSCAASGIIFRLYAMGWYRQAPGKERELVAAISYRGGSTYYADSVKGRFTISRDNAKNTVYLQMNSLKPEDTAVYYCAGRNPRYSFYYWGQGTQVTVSS high polyreactivity

So what's the measured polyreactivity (PSR sort gate) for this one? QVQLVDSGGGIVQAGGSLRLSCPASGITFPKYAMGWYRQAPGKERELVAAITKSSGSTYYADSVKGRFTISRDNAKNTVYLQMKSLKPEDTAVYYCAARRVNHIRSYSYVSNYGYWGQGTQVTVSS high polyreactivity

So what's the measured polyreactivity (PSR sort gate) for this one? QVQLVESGGGLVQAGGSLRLSCAASGSTFAYNAMGWYRQAPGKERELVAAISSSGGSTSYADSVKARFTIARDNAKNTVNLQMNSLKPEDPAVYYCAADSYPAYLGFVGFDYWGQGTQVTVSS low polyreactivity

Fill in the blank: the reported polyreactivity (PSR sort gate) of PVQLVETGGGLVQAGGSLRLSCAASGRTFYRYAMGWYRQAPGKERELVAAITRRVDSTSYADSVKGRFTISRDNAKNTVYLQMNSLKPEDTAVYYCATLVQGSVYGVYGGGYWGQGTQVTVSS is ____. low polyreactivity

Looking for the measured polyreactivity (PSR sort gate) of QVQLVESGGALVQAGGSLRLSCAASGIIFNLYAKGWYRPAPGKEMELVAAITSSGTSTYYADSVKGRFTISRDNAKNTVYLQMNSLSPEDTAVYYCAAERGFYYFVEYDYWGQGTQVTVSS , can you help? high polyreactivity

Give the measured polyreactivity (PSR sort gate) of QVQLVESGGGLVQAGGSLRLSCAASGRTFRAYAMGWNRQPPGKVRELVAVISLSGGSTYYADSVKGRFTISRDNAKNTVYLQMNSLKPEDTAVYYCAAVDWSYTGWRYDYWGQGTQVTVSS . low polyreactivity

For the sequence shown here, QVQLVESGGGLVQAGGSLRVSCAASGRTFDSYAMGWYRQAPGKEREFVAAISYSGTSTYYADSVKGRFTISRDNAKNTVYLQMNSLKPEDTAVYYCNAARETRPRDYYWGQGTQVTVSS , give the reported polyreactivity (PSR sort gate). low polyreactivity

Any idea what its polyreactivity (PSR sort gate) is? The sequence is PVQLVESGGVLVQAGGSLRLSCAASGFTFWLYAMGWYRQAPGNEREFVAAISPSGGSTYADSVKGRFTLSRDNAKNTVYLPMNRLKPEDTAVYYCNDGYLLYYDYHLFYWGQGTQLTVSS low polyreactivity

I would be grateful if you could share the reported polyreactivity (PSR sort gate) for QVQLVESGGGLVQAGGSLRLSCAASGRISRFYAMGWYRQAPGKERELVAGIRSGDSTNYADSVKGRFTISRDNAKNTVYLQMNSLKPEDTAVYYCAAVVFSDGRYGRANRMYYWGQGTQVTVSS . high polyreactivity

Sample QVQLVESGGGLVQAGGSLRLSCAASGGTFAWYAMGWYRQAPGKERELVAAITSDGITKYADSVKGRFTISRDNAKNTVYLQMNSLKPEDTAVYYCAKDDGPSDWIGRWFDYWGQGTQVTVSS — what was its polyreactivity (PSR sort gate)? low polyreactivity
